ASSAY SUMMARY: BTK FAC plasma stability assay, mouse plasma
Type: in vitro ADME
EXPERIMENTAL PARAMETERS: incubation to 24 h
MEASUREMENT LABEL: half-life at 5 µM

molecule="CCCCCCCCCCCN(C(=O)CCCCCCCCCC(=O)O)[C@@H](CCC(=O)NCC(=O)O[C@H]1CN(C(=O)Nc2cc(F)cc(-c3ncnc4[nH]c(-c5ccc(CCN6CCC7(CC6)CCN(C(=O)c6ccc(OC)c(N8CCC(=O)NC8=O)c6)CC7)cc5)cc34)c2C)C[C@@H]1CC(C)C)C(=O)O [Example A31]" measurement_label="half-life at 5 µM" result="< 1 h"
molecule="CCCCCCCCCCCN(C(=O)CCCCCCCCCCO)C(CCC(=O)NCCOCCOCCOCCOCCOCCOCCOCCOCCOCCOCCOCCOCCC(=O)NCCC(=O)NCCC(=O)OC(C)(C)c1ccc(C(=O)Nc2cc(F)cc(-c3ncnc4[nH]c(-c5ccc(CCN6CCC7(CC6)CCN(C(=O)c6ccc(OC)c(N8CCC(=O)NC8=O)c6)CC7)cc5)cc34)c2C)c(F)c1)C(=O)O (stereo not shown) [Example A5]" measurement_label="half-life at 5 µM" result="> 48 h"
molecule="CCCCCCCCCCCN(C(=O)CCCCCCCCCC(=O)O)[C@@H](CCC(=O)NCC(=O)OC(C)(C)c1ccc(C(=O)Nc2cc(F)cc(-c3ncnc4[nH]c(-c5ccc(CCN6CCC7(CC6)CCN(C(=O)c6ccc(OC)c(N8CCC(=O)NC8=O)c6)CC7)cc5)cc34)c2C)c(F)c1)C(=O)O [Example A6]" measurement_label="half-life at 5 µM" result="10.7 h"

Okay, next one:
Input line: Recorded half-life at 5 µM for CCCCCCCCCCCN(C(=O)CCCCCCCCCC(=O)O)[C@@H](CCC(=O)N(CCNC(=O)CCOCCOCCOCCOCCOCCOCCOCCOCCOCCOCCOCCOC)CC(=O)OC(C)(C)c1ccc(C(=O)Nc2cc(F)cc(-c3ncnc4[nH]c(-c5ccc(CCN6CCC7(CC6)CCN(C(=O)c6ccc(OC)c(N8CCC(=O)NC8=O)c6)CC7)cc5)cc34)c2C)c(F)c1)C(=O)O [Example A37] , please?
Output line: > 48 h

----------
ASSAY SUMMARY: In vivo pharmacokinetic study in mice (i.v. or s.c.), FAC and payload in blood
Set-up: species or system mouse
EXPERIMENTAL PARAMETERS: male, C57/B16, whole blood, iv; Mouse; unconj. BTK Degrader dosed itself (i.v. per row label); API dose 10 umol/kg; read-out: Payload (BTK Degrader) AUC
MEASUREMENT LABEL: AUC
# output: number + unit

Input line: Recorded AUC for Cc1c(NC(=O)c2ccc(C(C)(C)O)cc2F)cc(F)cc1-c1ncnc2[nH]c(-c3ccc(CN4CCC(OC5CCN(CCn6cccc(CN7CCC(=O)NC7=O)c6=O)CC5)CC4)cc3)cc12 [Compound N] , please?
Output line: 9.3 µM·h

----------
ASSAY SUMMARY: BTK FAC plasma stability assay, PBS buffer arm
Assay type: physicochemical
EXPERIMENTAL PARAMETERS: incubation to 24 h
Below: a set of entries, each annotated with reported Plasma stability (h) PBS.

Recorded Plasma stability (h) PBS, per entry:
compound=CCCCCCCCCCCN(C(=O)CCCCCCCCCC(=O)O)[C@@H](CCC(=O)NCC(=O)O[C@H]1CN(C(=O)Nc2cc(F)cc(-c3ncnc4[nH]c(-c5ccc(CCN6CCC7(CC6)CCN(C(=O)c6ccc(OC)c(N8CCC(=O)NC8=O)c6)CC7)cc5)cc34)c2C)C[C@@H]1CC(C)C)C(=O)O measurement_label="Plasma stability (h) PBS" result=">72 h"
compound="CCCCCCCCCCCN(C(=O)CCCCCCCCCC(=O)O)C(CCC(=O)NCCOCCOCCOCCOCCOCCOCCOCCOCCOCCOCCOCCOCCC(=O)NCC(=O)NCN(C(=O)c1ccc(C(C)(C)O)cc1F)c1cc(F)cc(-c2ncnc3[nH]c(-c4ccc(CCN5CCC6(CC5)CCN(C(=O)c5ccc(OC)c(N7CCC(=O)NC7=O)c5)CC6)cc4)cc23)c1C)C(=O)O (centres unmarked)" measurement_label="Plasma stability (h) PBS" result=">48 h"
compound="CCCCCCCCCCCN(C(=O)CCCCCCCCCC(=O)O)C(CCC(=O)NCCOCCOCCOCCOCCC(=O)NCC(=O)OC(C)(C)c1ccc(C(=O)Nc2cc(F)cc(-c3ncnc4[nH]c(-c5ccc(CCN6CCC7(CC6)CCN(C(=O)c6ccc(OC)c(N8CCC(=O)NC8=O)c6)CC7)cc5)cc34)c2C)c(F)c1)C(=O)O (centres unmarked)" measurement_label="Plasma stability (h) PBS" result=">48 h"
compound="CCCCCCCCCCCN(C(=O)CCCCCCCCCC(=O)O)C(CCC(=O)NCCOCCOCCOCCOCCOCCOCCOCCOCCOCCOCCOCCOCCC(=O)NCc1ccc(C(=O)OC(C)(C)c2ccc(C(=O)Nc3cc(F)cc(-c4ncnc5[nH]c(-c6ccc(CCN7CCC8(CC7)CCN(C(=O)c7ccc(OC)c(N9CCC(=O)NC9=O)c7)CC8)cc6)cc45)c3C)c(F)c2)cc1)C(=O)O (centres unmarked)" measurement_label="Plasma stability (h) PBS" result=">48 h"

Input line: Recorded Plasma stability (h) PBS for CCCCCCCCCCCN(C(=O)CCCCCCCCCC(=O)O)C(CCC(=O)NCCOCCOCCOCCOCCOCCOCCOCCOCCOCCOCCOCCOCCC(=O)N1CCC(F)(C(=O)OC(C)(C)c2ccc(C(=O)Nc3cc(F)cc(-c4ncnc5[nH]c(-c6ccc(CCN7CCC8(CC7)CCN(C(=O)c7ccc(OC)c(N9CCC(=O)NC9=O)c7)CC8)cc6)cc45)c3C)c(F)c2)CC1)C(=O)O (centres unmarked) , please?
Output line: >48 h

Data origin, for the record: patent US20240216513A1
